Field: viability at 20 µM. Provide a value for each of the compounds that follow.
tested on: CWR22R; test: Cytotoxicity against human 22Rv1 cells assessed as cell viability at 20 uM incubated for 72 hrs by resazurin dye based microplate reader assay; format: functional; conditions: read-out: Activity
Unit % implied. Number only.

// lookup viability at 20 µM for C[C@]12Cc3cn(-c4ccc(C#N)cc4)nc3C[C@@H]1CC[C@@H]1[C@@H]2CC[C@]2(C)[C@@H](O)CC[C@@H]12 94

For the compound Cn1nc2c(c1-c1cccs1)C[C@@]1(C)[C@@H](CC[C@@H]3[C@@H]1CC[C@]1(C)C(=O)CC[C@@H]31)C2 , what viability at 20 µM is on record? 68

----------
experiment: Downregulation of AR protein expression in human LAPC4 cells assessed as AR levels at 10 uM incubated for 24 hrs by immunoblotting analysis; format: functional
Consider the following compounds; for each one, report its Activity.
Field format: number, assumed %, no unit text.

Give the measured Activity of Cn1nc2c(c1-c1ccco1)C[C@@]1(C)[C@@H](CC[C@@H]3[C@@H]1CC[C@]1(C)C(=O)CC[C@@H]31)C2 . 97

Any idea what its Activity is? The compound is C[C@]12CC[C@H](O)CC1=CC[C@@H]1[C@@H]2CC[C@]2(C)C(c3cccnc3)=CC[C@@H]12 88

Which Activity reading was recorded for the compound COc1ccc(-c2c3c(nn2C)C[C@@H]2CC[C@@H]4[C@H](CC[C@]5(C)[C@@H](O)CC[C@@H]45)[C@@]2(C)C3)cc1 ? 85

Recorded Activity for Cn1nc2c(c1-c1ccccc1)C[C@@]1(C)[C@@H](CC[C@@H]3[C@@H]1CC[C@]1(C)C(=O)CC[C@@H]31)C2 , please? 65

----------
test system: LAPC4; assay: Cytotoxicity against human LAPC4 cells assessed as cell viability at 20 uM incubated for 72 hrs by resazurin dye based microplate reader assay; format: functional; conditions: read-out: Activity
ENDPOINT: viability at 20 µM (%)
Give the value, in units of %, as a plain number.

Need viability at 20 µM of Cn1nc2c(c1-c1ccccc1)C[C@@]1(C)[C@@H](CC[C@@H]3[C@@H]1CC[C@]1(C)C(=O)CC[C@@H]31)C2 , thanks. 36

Quick one: viability at 20 µM of Cn1nc2c(c1-c1ccco1)C[C@@]1(C)[C@@H](CC[C@@H]3[C@@H]1CC[C@]1(C)C(=O)CC[C@@H]31)C2 ? 39

Returns the measured viability at 20 µM for the input compound. Input: C[C@]12Cc3cnn(-c4ccc(Br)cc4)c3C[C@@H]1CC[C@@H]1[C@@H]2CC[C@]2(C)[C@@H](O)CC[C@@H]12 58

Any idea what viability at 20 µM was measured for C[C@]12Cc3cn(-c4ccc([N+](=O)[O-])cc4)nc3C[C@@H]1CC[C@@H]1[C@@H]2CC[C@]2(C)[C@@H](O)CC[C@@H]12 ? 96

Which viability at 20 µM value belongs to Cc1ccc(-n2ncc3c2C[C@@H]2CC[C@@H]4[C@H](CC[C@]5(C)[C@@H](O)CC[C@@H]45)[C@@]2(C)C3)cc1 ? 70

What value of viability at 20 µM has been recorded for this entry: C[C@]12Cc3c(nn(-c4ccccc4)c3-c3ccccc3)C[C@@H]1CC[C@@H]1[C@@H]2CC[C@]2(C)[C@@H](O)CC[C@@H]12 72

Need viability at 20 µM of Cc1c2c(nn1-c1ccc(Cl)cc1)C[C@@H]1CC[C@@H]3[C@H](CC[C@]4(C)C(=O)CC[C@@H]34)[C@@]1(C)C2 , thanks. 38

Entry Cc1c2c(nn1-c1ccc(C#N)cc1)C[C@@H]1CC[C@@H]3[C@H](CC[C@]4(C)C(=O)CC[C@@H]34)[C@@]1(C)C2 has what viability at 20 µM? 78

Entry under review: C[C@]12Cc3cnn(-c4ccc(C#N)cc4)c3C[C@@H]1CC[C@@H]1[C@@H]2CC[C@]2(C)[C@@H](O)CC[C@@H]12 . Reported viability at 20 µM? 65

Request the reported viability at 20 µM associated with COc1ccc(-n2ncc3c2C[C@@H]2CC[C@@H]4[C@H](CC[C@]5(C)[C@@H](O)CC[C@@H]45)[C@@]2(C)C3)cc1 43

// returns reported viability at 20 µM for input Cc1ccc(-n2nc3c(c2C)C[C@@]2(C)[C@@H](CC[C@@H]4[C@@H]2CC[C@]2(C)[C@@H](O)CC[C@@H]42)C3)cc1 88

Look up viability at 20 µM for this compound: C[C@]12Cc3c(nn(-c4ccccc4)c3-c3ccc(Cl)cc3)C[C@@H]1CC[C@@H]1[C@@H]2CC[C@]2(C)C(=O)CC[C@@H]12 83

Look up viability at 20 µM for this compound: C[C@]12Cc3cnn(-c4ccc(F)cc4)c3C[C@@H]1CC[C@@H]1[C@@H]2CC[C@]2(C)[C@@H](O)CC[C@@H]12 44

----------
system: LAPC4; test: Cytotoxicity against human LAPC4 cells assessed as cell viability at 20 uM incubated for 72 hrs by resazurin dye based microplate reader assay; format: functional; settings: read-out: Activity
One threshold, 60%, splits the recorded viability at 20 µM values: lower ones are t, equal or higher ones are f.

Dear reviewer, please state whether Cn1nc2c(c1-c1cccs1)C[C@@]1(C)[C@@H](CC[C@@H]3[C@@H]1CC[C@]1(C)C(=O)CC[C@@H]31)C2 has viability at 20 µM strictly beneath 60%. t

Quick check: viability at 20 µM of COc1ccc(-n2nc3c(c2C)C[C@@]2(C)[C@@H](CC[C@@H]4[C@@H]2CC[C@]2(C)C(=O)CC[C@@H]42)C3)cc1 under 60%? t

Given Cc1c2c(nn1-c1ccccc1)C[C@@H]1CC[C@@H]3[C@H](CC[C@]4(C)C(=O)CC[C@@H]34)[C@@]1(C)C2 , is recorded viability at 20 µM strictly lower than 60%? f

Please let me know if C[C@]12Cc3cn(-c4ccc(F)cc4)nc3C[C@@H]1CC[C@@H]1[C@@H]2CC[C@]2(C)[C@@H](O)CC[C@@H]12 shows viability at 20 µM below 60%. f

Just wondering, is viability at 20 µM of Cc1c2c(nn1-c1ccc(F)cc1)C[C@@H]1CC[C@@H]3[C@H](CC[C@]4(C)[C@@H](O)CC[C@@H]34)[C@@]1(C)C2 below 60%? t

Does the reported viability at 20 µM of the following compound sit strictly below 60%? Cn1nc2c(c1-c1ccccc1)C[C@@]1(C)[C@@H](CC[C@@H]3[C@@H]1CC[C@]1(C)[C@@H](O)CC[C@@H]31)C2 t

----------
I'd be grateful if you could share measured viability at 20 µM for these entries.
system: LAPC4; assay: Cytotoxicity against human LAPC4 cells assessed as cell viability at 20 uM incubated for 72 hrs by resazurin dye based microplate reader assay; assay type: functional; details: read-out: Activity
Unit % implied. Number only.

Request - read-out viability at 20 µM | tested on LAPC4 | compound C[C@]12Cc3cn(-c4ccc(Cl)cc4)nc3C[C@@H]1CC[C@@H]1[C@@H]2CC[C@]2(C)[C@@H](O)CC[C@@H]12 82

# returns recorded viability at 20 µM (system: LAPC4) for Cn1nc2c(c1-c1ccc(Br)cc1)C[C@@]1(C)[C@@H](CC[C@@H]3[C@@H]1CC[C@]1(C)C(=O)CC[C@@H]31)C2 20

Any idea what viability at 20 µM came out for Cc1c2c(nn1C)C[C@@H]1CC[C@@H]3[C@H](CC[C@]4(C)[C@@H](O)CC[C@@H]34)[C@@]1(C)C2 on LAPC4? 52

Look up viability at 20 µM with LAPC4 for this compound: C[C@]12CC[C@H](O)CC1=CC[C@@H]1[C@@H]2CC[C@]2(C)C(c3cccnc3)=CC[C@@H]12 [ABIRATERONE] 100

Report viability at 20 µM for Cc1c2c(nn1C)C[C@@H]1CC[C@@H]3[C@H](CC[C@]4(C)C(=O)CC[C@@H]34)[C@@]1(C)C2 tested on LAPC4. 53

# returns recorded viability at 20 µM (system: LAPC4) for Cn1nc2c(c1-c1ccc(Cl)cc1)C[C@@]1(C)[C@@H](CC[C@@H]3[C@@H]1CC[C@]1(C)C(=O)CC[C@@H]31)C2 21

Could you share what viability at 20 µM was measured for C[C@]12Cc3cnn(-c4ccc([N+](=O)[O-])cc4)c3C[C@@H]1CC[C@@H]1[C@@H]2CC[C@]2(C)[C@@H](O)CC[C@@H]12 , tested on LAPC4? 40

Recorded viability at 20 µM for Cn1nc2c(c1-c1ccc(F)cc1)C[C@@]1(C)[C@@H](CC[C@@H]3[C@@H]1CC[C@]1(C)[C@@H](O)CC[C@@H]31)C2 with LAPC4, please? 44

Hi! What's the reported viability at 20 µM for Cc1c2c(nn1-c1ccc(Cl)cc1)C[C@@H]1CC[C@@H]3[C@H](CC[C@]4(C)[C@@H](O)CC[C@@H]34)[C@@]1(C)C2 on LAPC4? 47

Find viability at 20 µM (LAPC4) for the entry Cc1c2c(nn1-c1ccc([N+](=O)[O-])cc1)C[C@@H]1CC[C@@H]3[C@H](CC[C@]4(C)C(=O)CC[C@@H]34)[C@@]1(C)C2 48

Query for LAPC4: what viability at 20 µM does the record show for COc1ccc(-n2cc3c(n2)C[C@@H]2CC[C@@H]4[C@H](CC[C@]5(C)[C@@H](O)CC[C@@H]45)[C@@]2(C)C3)cc1 ? 99

Find viability at 20 µM (LAPC4) for the entry COc1ccc(-c2c3c(nn2C)C[C@@H]2CC[C@@H]4[C@H](CC[C@]5(C)C(=O)CC[C@@H]45)[C@@]2(C)C3)cc1 35

// lookup viability at 20 µM | system=LAPC4 | key= Cn1nc2c(c1-c1ccc(Br)cc1)C[C@@]1(C)[C@@H](CC[C@@H]3[C@@H]1CC[C@]1(C)[C@@H](O)CC[C@@H]31)C2 42

Which measured viability at 20 µM belongs to Cc1ccc(-c2c3c(nn2C)C[C@@H]2CC[C@@H]4[C@H](CC[C@]5(C)C(=O)CC[C@@H]45)[C@@]2(C)C3)cc1 , tested on LAPC4? 34

State its viability at 20 µM on LAPC4: Cc1c2c(nn1-c1ccc(Br)cc1)C[C@@H]1CC[C@@H]3[C@H](CC[C@]4(C)[C@@H](O)CC[C@@H]34)[C@@]1(C)C2 52

Record COc1ccc(-c2c3c(nn2C)C[C@@H]2CC[C@@H]4[C@H](CC[C@]5(C)[C@@H](O)CC[C@@H]45)[C@@]2(C)C3)cc1 : what is its viability at 20 µM with LAPC4? 51

Report viability at 20 µM for N#Cc1ccc(O[C@H]2CC[C@H](NC(=O)c3ccc(N4CCC(CN5CCN(c6cc7c(cc6F)C(=O)N(C6CCC(=O)NC6=O)C7=O)CC5)CC4)nn3)CC2)cc1Cl (some centres undefined) [BAVDEGALUTAMIDE] tested on LAPC4. 5

Observed viability at 20 µM on LAPC4 for C[C@]12Cc3c(nn(-c4ccccc4)c3-c3ccc(O)cc3)C[C@@H]1CC[C@@H]1[C@@H]2CC[C@]2(C)C(=O)CC[C@@H]12 , please. 67

Provide value of viability at 20 µM for this record tested with LAPC4: COc1ccc(-n2nc3c(c2C)C[C@@]2(C)[C@@H](CC[C@@H]4[C@@H]2CC[C@]2(C)[C@@H](O)CC[C@@H]42)C3)cc1 82

Notebook: pull reported viability at 20 µM for LAPC4, entry Cn1nc2c(c1-c1ccc(Cl)cc1)C[C@@]1(C)[C@@H](CC[C@@H]3[C@@H]1CC[C@]1(C)[C@@H](O)CC[C@@H]31)C2 41

Param readout= viability at 20 µM; system= LAPC4; entry= Cc1c2c(nn1-c1ccc([N+](=O)[O-])cc1)C[C@@H]1CC[C@@H]3[C@H](CC[C@]4(C)[C@@H](O)CC[C@@H]34)[C@@]1(C)C2 ; returns value. 74

Value wanted: viability at 20 µM (LAPC4) of entry Cc1c2c(nn1-c1ccc(F)cc1)C[C@@H]1CC[C@@H]3[C@H](CC[C@]4(C)C(=O)CC[C@@H]34)[C@@]1(C)C2 42

Fill in the recorded viability at 20 µM for this compound, with LAPC4 as test system: Cn1nc2c(c1-c1cccs1)C[C@@]1(C)[C@@H](CC[C@@H]3[C@@H]1CC[C@]1(C)[C@@H](O)CC[C@@H]31)C2 46

API: value(readout= viability at 20 µM, system= LAPC4, query= C[C@]12Cc3cn(-c4ccc(C#N)cc4)nc3C[C@@H]1CC[C@@H]1[C@@H]2CC[C@]2(C)[C@@H](O)CC[C@@H]12 ) 93
